Molecular target: 5-HT2A receptors in a CHO cell line (Homo sapiens, UniProt P28223)
Sequence (P28223 whole entry): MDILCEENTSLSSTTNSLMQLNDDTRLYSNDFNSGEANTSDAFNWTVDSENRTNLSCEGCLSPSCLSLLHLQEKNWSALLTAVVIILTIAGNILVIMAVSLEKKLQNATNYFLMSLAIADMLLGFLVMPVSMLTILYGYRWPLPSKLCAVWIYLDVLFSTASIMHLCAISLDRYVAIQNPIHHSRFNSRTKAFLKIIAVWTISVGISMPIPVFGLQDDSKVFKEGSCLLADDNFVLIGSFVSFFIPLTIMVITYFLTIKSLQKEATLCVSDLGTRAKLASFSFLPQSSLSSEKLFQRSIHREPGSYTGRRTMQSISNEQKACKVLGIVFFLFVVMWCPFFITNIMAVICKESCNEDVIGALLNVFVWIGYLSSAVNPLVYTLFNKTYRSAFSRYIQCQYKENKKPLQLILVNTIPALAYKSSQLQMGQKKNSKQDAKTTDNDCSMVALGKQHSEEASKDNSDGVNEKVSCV
Test: Binding to 5-HT2A receptor, [125I]-DOI, Method (c)
Conditions: read-out: Ki (2A)
pKi: −log10 of the molar value. Where a name gives a salt, the structure may show the parent alone.
result_type: pKi

Clc1ccc2c(c1)N1CCNCC1C2 (racemic) [Example 1, hydrochloride] = 7.28

###

Molecular target: h5-HT2A receptor (CHO cells) (Homo sapiens, UniProt P28223)
Construct: expressed in transfected cells; host or cells: CHO cells
Sequence (P28223 whole entry): as above
Assay: Functional activity, FLIPR calcium assay, h5-HT2A
Assay type: cell-based
Conditions: CHO, read-out: h5-HT2A Relative Efficacy
Where a name gives a salt, the structure may show the parent alone.
Catalogue of Emax values
result_type: Emax (%)

Clc1ccc2c(c1)CC1CNCCN21 (racemic) [Example 2, hydrochloride] = 88
Clc1ccc2c(c1)N1CCNCC1C2 (racemic) [Example 1, hydrochloride] = 53
Clc1ccc2c(c1)N1CCNC[C@@H]1C2 [Example 7, hydrochloride] = 67
Cc1cc2c(cc1Cl)N1CCNCC1C2 (racemic) [Example 5, fumarate] = 87
Clc1ccc2c(n1)N1CCNCC1C2 (racemic) = 47
C[C@H]1CN2c3cc(Cl)ccc3C[C@@H]2CN1 [Example 11, hydrochloride] = 38
Brc1ccc2c(c1)N1CCNCC1C2 (racemic) [Example 4, hydrochloride] = 58
Clc1ccc2c(c1)N1CCNC[C@H]1C2 [Example 8, hydrochloride] = 59
CSc1ccc2c(c1)N1CCNCC1C2 (racemic) [Example 13, fumarate] = 59
Clc1cccc2c1CC1CNCCN21 (racemic) [Example 3, hydrochloride] = 49
Fc1cc2c(cc1Cl)N1CCNCC1C2 (racemic) = 74

###

Molecular target: h5-HT2C receptor (CHO cells) (Homo sapiens)
Construct: expressed in transfected cells; host or cells: CHO cells
Sequence (P28335 33-458): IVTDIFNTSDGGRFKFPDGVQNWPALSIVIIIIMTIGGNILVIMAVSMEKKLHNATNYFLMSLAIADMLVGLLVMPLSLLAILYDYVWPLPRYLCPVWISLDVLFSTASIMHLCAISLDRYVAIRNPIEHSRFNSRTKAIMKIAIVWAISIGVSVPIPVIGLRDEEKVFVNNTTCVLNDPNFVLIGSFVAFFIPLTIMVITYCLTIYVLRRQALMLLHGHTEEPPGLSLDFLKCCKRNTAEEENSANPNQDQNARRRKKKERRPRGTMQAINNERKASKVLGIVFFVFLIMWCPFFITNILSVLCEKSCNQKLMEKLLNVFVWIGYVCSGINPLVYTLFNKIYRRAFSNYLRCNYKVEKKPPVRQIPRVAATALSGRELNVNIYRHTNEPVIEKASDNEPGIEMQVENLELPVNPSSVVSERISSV
Test: Functional activity, FLIPR calcium assay, h5-HT2C
Assay type: cell-based
Protocol: The functional activity of compounds of formula (I) was assayed using a Fluorimetric Imaging Plate reader (FLIPR): CHO cells expressing either the h5-HT2C or h5-HT2A receptors were counted and plated into standard 96 well microtitre plates before the day of testing to give a confluent monolayer. […] The drug (dissolved in 50 μl of assay buffer) was added at a rate of 70 μl/sec to each well of the FLIPR 96 well plate during fluorescence measurements. […]
Where a name gives a salt, the structure may show the parent alone.
result_type: EC50 (nM)

CSc1ccc2c(c1)N1CCNCC1C2 (racemic) [Example 13, fumarate] = 86
Fc1cc2c(cc1Cl)N1CCNCC1C2 (racemic) = 22
Brc1ccc2c(c1)N1CCNCC1C2 (racemic) [Example 4, hydrochloride] = 13
Clc1ccc2c(c1)N1CCNC[C@H]1C2 [Example 8, hydrochloride] = 3
Clc1ccc2c(c1)N1CCNC[C@@H]1C2 [Example 7, hydrochloride] = 161
C[C@H]1CN2c3cc(Cl)ccc3C[C@@H]2CN1 [Example 11, hydrochloride] = 58
Cc1cc2c(cc1Cl)N1CCNCC1C2 (racemic) [Example 5, fumarate] = 20
Clc1ccc2c(c1)N1CCNCC1C2 (racemic) [Example 1, hydrochloride] = 18
